# target.or.system: thrombin (Homo sapiens (Human), UniProt P00734)
# measurement.description: Measurement of the thrombin inhibition in buffer
# Assay type: biochemical
# assay.conditions: human thrombin 0.06 nmol/l, Tris buffer pH 7.4, 22° C.; substrate Boc-Asp(OBzl)-Pro-Arg-AMC; in some cases means
parameter.measured: IC50 (nM)

compound="COc1cc(C(=O)N2CCC(O)C(C)C2)cc2nc(NC(CF)c3cccc(Cl)c3)oc12 (single isomer, unassigned) [Example 3]" parameter_measured=IC50 measured_number=2.4
compound="CCO[C@@H]1CC(CO)N(C(=O)c2cc(OC)c3oc(NC(CF)c4cccc(Cl)c4)nc3c2)C1 (single isomer, unassigned) [Example 27]" parameter_measured=IC50 measured_number=0.16
compound="CCO[C@@H]1CC(CO)N(C(=O)c2cc(OC)c3oc(NC(CF)c4cccc(Cl)c4)nc3c2)C1 (stereo partly drawn) [Example 26]" parameter_measured=IC50 measured_number=0.19
compound="COc1cc(C(=O)N2CC(C)OC[C@H]2C)cc2nc(NC(CF)c3cccc(Cl)c3)oc12 (single isomer, unassigned) [Example 7]" parameter_measured=IC50 measured_number=5.3
compound="COc1cc(C(=O)N2CC(C)(CCO)OC[C@H]2C)cc2nc(NC(CF)c3cccc(Cl)c3)oc12 (stereo partly drawn) [Example 9]" parameter_measured=IC50 measured_number=0.2
compound="COc1cc(C(=O)N2CCC(O)C(C)C2)cc2nc(NC(CF)c3cccc(Cl)c3)oc12 (stereo not drawn) [Example 1]" parameter_measured=IC50 measured_number=3.2
compound="COc1cc(C(=O)N2CC3(CC3)NC(=O)C2C)cc2nc(NC(CF)c3cccc(Cl)c3)oc12 (stereo not drawn) [Example 32]" parameter_measured=IC50 measured_number=0.7
compound="COc1cc(C(=O)N2CC(C)OC[C@]23C[C@H](O)C3)cc2nc(NC(CF)c3cccc(Cl)c3)oc12 (stereo partly drawn) [Example 22]" parameter_measured=IC50 measured_number=1.6

(1) COc1cc(C(=O)N2CC(C)(CCO)OC[C@H]2C)cc2nc(NC(CF)c3cccc(Cl)c3)oc12 (single isomer, unassigned) [Example 11]
(2) CCO[C@@H]1CC(CO)N(C(=O)c2cc(OC)c3oc(NC(CF)c4cccc(Cl)c4)nc3c2)C1 (single isomer, unassigned) [Example 28]
(3) COc1cc(C(=O)N2CC(C)(CC(C)O)OC[C@H]2C)cc2nc(NC(CF)c3cccc(Cl)c3)oc12 (stereo partly drawn)
(4) COc1cc(C(=O)N2CC(C)OC[C@H]2C)cc2nc(NC(CF)c3cccc(Cl)c3)oc12 (single isomer, unassigned) [Example 8]
Lookup: Hey, can you sort those compounds up there by IC50, smallest first? Returns: the labels arranged in the requested order.
Found: 1, 3, 2, 4

* * *

# target.or.system: thrombin (Homo sapiens (Human))
# measurement.description: Measurement of the thrombin inhibition in buffer
# Type: biochemical
# assay.conditions: human thrombin 0.06 nmol/l, Tris buffer pH 7.4, 22° C.; substrate Boc-Asp(OBzl)-Pro-Arg-AMC; in some cases means
parameter.measured: IC50 (nM)

molecule="COc1cc(C(=O)N2CC(C)(C)OCC2CO)cc2nc(NC(CF)c3cccc(Cl)c3)oc12 (single isomer, unassigned) [Example 6]" measured_number=9.7
molecule="CCO[C@@H]1CC(CCO)N(C(=O)c2cc(OC)c3oc(NC(CF)c4cccc(Cl)c4)nc3c2)C1 (single isomer, unassigned) [Example 30]" measured_number=5.3

(I) COc1cc(C(=O)N2CC3CCN3C(=O)C2C)cc2nc(NC(CF)c3cccc(Cl)c3)oc12 (single isomer, unassigned) [Example 23]
(II) CCO[C@@H]1CC(CCO)N(C(=O)c2cc(OC)c3oc(NC(CF)c4cccc(Cl)c4)nc3c2)C1 (stereo partly shown) [Example 29]
Lookup: Between the entries labelled I and II , which has a larger IC50 value on record? Give the label of your selection.
Found: I

(a) COc1cc(C(=O)N2CC(C)(C)OC[C@H]2CCO)cc2nc(NC(CF)c3cccc(Cl)c3)oc12 (stereo partly shown) [Example 25]
(b) COc1cc(C(=O)N2CCC(O)C(C)C2)cc2nc(NC(CF)c3cccc(Cl)c3)oc12 (single isomer, unassigned) [Example 2]
(c) CCO[C@@H]1CC(CCO)N(C(=O)c2cc(OC)c3oc(NC(CF)c4cccc(Cl)c4)nc3c2)C1 (single isomer, unassigned) [Example 31]
(d) COc1cc(C(=O)N2CC(C)(CCO)OC[C@H]2C)cc2nc(NC(CF)c3cccc(Cl)c3)oc12 (single isomer, unassigned) [Example 10]
(e) COc1cc(C(=O)N2CC3(CC3)NC(=O)C2C)cc2nc(NC(CF)c3cccc(Cl)c3)oc12 (single isomer, unassigned) [Example 34]
Lookup: Rank ascending by IC50. Put the labels in the order asked and list them.
Found: c, a, e, b, d

(P) COc1cc(C(=O)N2CC(C)(C)OCC2CO)cc2nc(NC(CF)c3cccc(Cl)c3)oc12 (single isomer, unassigned) [Example 5]
(Q) COc1cc(C(=O)N2CC3(CC3)NC(=O)C2C)cc2nc(NC(CF)c3cccc(Cl)c3)oc12 (single isomer, unassigned) [Example 33]
Lookup: Look at P and Q . Which one has the lower recorded IC50 number? Refer to your chosen entry by its label in the reply.
Found: Q
(Q: 0.38 nM, P: 1.1 nM)
